Hello, the source for this data is patent US20250221966A1, in case you need it.

# key: entry, value: pEC50
- assayed-system: human RXFP1 (Homo sapiens)
- Construct: expressed in transfected cells
- Sequence (Q9HBX9 1-757): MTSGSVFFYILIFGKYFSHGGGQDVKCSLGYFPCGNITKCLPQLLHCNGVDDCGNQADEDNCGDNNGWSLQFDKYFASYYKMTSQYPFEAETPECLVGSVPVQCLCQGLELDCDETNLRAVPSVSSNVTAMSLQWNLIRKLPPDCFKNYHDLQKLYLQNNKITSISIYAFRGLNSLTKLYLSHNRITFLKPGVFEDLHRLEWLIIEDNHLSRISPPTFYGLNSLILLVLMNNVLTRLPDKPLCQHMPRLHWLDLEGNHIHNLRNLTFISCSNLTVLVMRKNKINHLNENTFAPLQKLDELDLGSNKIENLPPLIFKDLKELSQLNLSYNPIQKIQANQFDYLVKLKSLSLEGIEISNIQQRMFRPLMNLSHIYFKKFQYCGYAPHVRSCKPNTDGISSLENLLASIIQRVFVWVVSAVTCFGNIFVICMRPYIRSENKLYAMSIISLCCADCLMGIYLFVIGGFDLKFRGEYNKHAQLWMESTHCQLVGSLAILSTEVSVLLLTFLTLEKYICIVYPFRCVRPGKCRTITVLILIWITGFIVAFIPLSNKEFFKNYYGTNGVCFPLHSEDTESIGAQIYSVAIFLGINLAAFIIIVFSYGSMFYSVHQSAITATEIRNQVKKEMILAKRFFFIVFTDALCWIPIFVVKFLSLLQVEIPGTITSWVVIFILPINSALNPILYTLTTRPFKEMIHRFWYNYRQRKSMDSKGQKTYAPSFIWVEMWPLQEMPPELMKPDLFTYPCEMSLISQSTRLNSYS
- protocol-summary: RXFP1 cAMP assay (hRXFP1 HEK293 cAMP assay, HTRF)
- Assay type: cell-based
- test-context: HEK293 cells stably expressing human RXFP1, 30 min at room temperature, read-out: cAMP hRXFP1 HEK293 Assay EC50
Remember the convention: pEC50 equals -log10 of concentration in molar.

Observe how each entry below is paired with its result.
COc1ccc(C2=NOC3COCC23)cc1C(=O)N[C@H]1[C@@H](C(=O)NCC(C)(C)OC)[C@H]2CC[C@@H]1/C2=C\C1CC1 (some centres unmarked) : 7.33
COc1ccc(C2=NOC3CC(C)(O)CC23)cc1C(=O)N[C@H]1[C@@H](C(=O)Nc2ccc(F)c(C(F)(F)F)c2)[C@H]2CC[C@@H]1/C2=C\C1CC1 (some centres unmarked) : 8.89
COc1ccc(-c2cc(C(=O)O)ccc2F)cc1C(=O)N[C@@H]1C2CCC(/C2=C/C2CC2)[C@@H]1C(=O)NCc1ccccc1 (some centres unmarked) : 5.53
COc1ccc(C2=NOC3C(O)CCC23)cc1C(=O)N[C@H]1[C@@H](C(=O)Nc2ccc(F)c(C(F)(F)F)c2)[C@H]2CC[C@@H]1/C2=C\C1CC1 (single isomer, unassigned) [compound 483] : 8.14
COc1ccc(C2=NOC3COCC23)cc1C(=O)N[C@H]1[C@@H](C(=O)NCC2(C)CCC2)[C@H]2CC[C@@H]1/C2=C\C1CC1 (some centres unmarked) : 8.19

The reported value for COc1ccc(-c2cc(C3=NOC(C(=O)O)C3)ccc2F)cc1C(=O)N[C@H]1[C@@H](C(=O)Nc2ccc(F)c(C(F)(F)F)c2)[C@H]2CC[C@@H]1/C2=C\C1CCCC1 (some centres unmarked) [compound 913] in terms of pEC50 is 8.05

Entry COc1ccc(-c2nn[nH]n2)cc1C(=O)N[C@@H]1C2CCC(C2=C(C)C)[C@@H]1C(=O)Nc1ccc(F)c(C(F)(F)F)c1 (some centres unmarked) , pEC50 reported as 5.68

Query COc1ccc(C2CCCN(C(=O)C(=O)O)C2)cc1C(=O)NC1C2CCC(/C2=C/C(F)(F)F)C1C(=O)Nc1ccc(F)c(C(F)(F)F)c1 (centres unmarked) yields pEC50 of 6.19
